METHOD NOTES: Terminal half life in fasted Sprague-Dawley rat at 1 mg/kg, iv after 6 to 24 hrs by LC-MS/MS analysis
Format: ADME, organism-based
Set-up: dose 1 mg/kg, route intravenous
CONDITION SUMMARY: in vivo, read-out: beta t1/2 (converted)
Rule: half-life of 1 h or more gives 1; anything lower gives -1.

>  <MOLECULE>
C[C@@H]1CCCN1CCCOc1ccc(-c2ccc(=O)n(C)n2)cc1

>  <CAT>
1

$$$$
>  <MOLECULE>
C[C@@H]1CCCN1CCCOc1ccc(-c2ccc(=O)n(-c3ccccc3)n2)cc1

>  <CAT>
1

$$$$
>  <MOLECULE>
C[C@@H]1CCCN1CCCOc1ccc(-c2ccc(=O)[nH]n2)cc1.Cl [IRDABISANT HYDROCHLORIDE]

>  <CAT>
1

$$$$
>  <MOLECULE>
Cn1nc(-c2ccc(OCCCN3CCCCC3)cc2)ccc1=O

>  <CAT>
1

$$$$
>  <MOLECULE>
C[C@@H]1CCCN1CCc1cc2cc(-c3ccc(C#N)cc3)ccc2o1

>  <CAT>
1

$$$$
>  <MOLECULE>
O=c1ccc(-c2ccc(OCCCN3CCCCC3)cc2)n[nH]1

>  <CAT>
-1

$$$$
>  <MOLECULE>
CC(C)n1nc(-c2ccc(OCCCN3CCC[C@H]3C)cc2)ccc1=O

>  <CAT>
-1

$$$$
>  <MOLECULE>
CCn1nc(-c2ccc(OCCCN3CCC[C@H]3C)cc2)ccc1=O

>  <CAT>
-1

$$$$
>  <MOLECULE>
C[C@H]1CCCN1CCCOc1ccc(-c2ccc(=O)[nH]n2)cc1

>  <CAT>
1

$$$$
>  <MOLECULE>
C[C@@H]1CCCN1CCCOc1ccc(-c2ccc(=O)n(Cc3ccccc3)n2)cc1

>  <CAT>
-1

$$$$

###

TESTED TARGET: Cytochrome P450 2D6 (Homo sapiens, UniProt P10635)
Sequence (P10635 whole entry): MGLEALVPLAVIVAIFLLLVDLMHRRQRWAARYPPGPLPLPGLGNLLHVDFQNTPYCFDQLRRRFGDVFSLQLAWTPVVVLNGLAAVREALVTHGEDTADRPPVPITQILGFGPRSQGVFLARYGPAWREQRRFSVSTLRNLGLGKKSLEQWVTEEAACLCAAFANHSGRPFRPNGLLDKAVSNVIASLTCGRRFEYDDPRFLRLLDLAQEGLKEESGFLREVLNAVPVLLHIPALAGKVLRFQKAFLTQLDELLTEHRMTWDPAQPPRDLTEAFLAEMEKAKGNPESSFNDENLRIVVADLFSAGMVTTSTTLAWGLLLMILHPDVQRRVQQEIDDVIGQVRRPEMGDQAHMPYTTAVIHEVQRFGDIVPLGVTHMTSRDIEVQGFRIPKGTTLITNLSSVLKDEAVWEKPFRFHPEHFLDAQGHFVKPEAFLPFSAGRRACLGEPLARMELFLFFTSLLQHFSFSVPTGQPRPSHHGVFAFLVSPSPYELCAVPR
pIC50: −log10 of the molar value.
MEASURED METRIC: pIC50

>  <COMPOUND>
C[C@@H]1CCCN1CCCOc1ccc(-c2ccc(=O)[nH]n2)cc1.Cl [IRDABISANT HYDROCHLORIDE]

>  <MEASURED>
< 4.52

$$$$

###

METHOD NOTES: Volume of distribution in cynomolgus monkey at 1 mg/kg, iv after 6 to 24 hrs by LC-MS/MS analysis
Assay type: ADME, organism-based, Macaca fascicularis
Set-up: dose 1 mg/kg, route intravenous
CONDITION SUMMARY: in vivo

>  <MOLECULE>
C[C@@H]1CCCN1CCCOc1ccc(-c2ccc(=O)[nH]n2)cc1.Cl [IRDABISANT HYDROCHLORIDE]

>  <VALUE UNITS>
L/kg

>  <Vd>
3.8

$$$$

###

METHOD NOTES: Distribution coefficient log D of the compound at pH 7.4
Format: physicochemical
CONDITION SUMMARY: octanol/water

>  <STRUCTURE STRING>
C[C@@H]1CCCN1CCCOc1ccc(-c2ccc(=O)[nH]n2)cc1

>  <logD>
0.6

$$$$
>  <STRUCTURE STRING>
C[C@@H]1CCCN1CCCOc1ccc(-c2ccc(=O)n(C)n2)cc1

>  <logD>
0.8

$$$$

###

METHOD NOTES: Ratio of drug uptake in brain to plasma of fasted Sprague-Dawley rat at 1 mg/kg, iv after 6 to 24 hrs by LC-MS/MS analysis
Format: ADME, organism-based
Parameters: dose 1 mg/kg, route intravenous
CONDITION SUMMARY: read-out: BPR
MEASURED METRIC: Kp

>  <STRUCTURE STRING>
C[C@@H]1CCCN1CCCOc1ccc(-c2cn[nH]c(=O)c2)cc1

>  <MEASURED>
1.8

$$$$
>  <STRUCTURE STRING>
O=c1ccc(-c2ccc(OCCCN3CCCCC3)cc2)n[nH]1

>  <MEASURED>
1.9

$$$$
>  <STRUCTURE STRING>
Cn1nc(-c2ccc(OCCCN3CCC[C@H]3CO)cc2)ccc1=O

>  <MEASURED>
1.4

$$$$
>  <STRUCTURE STRING>
C[C@@H]1CCCN1CCCOc1ccc(-c2ccc(=O)n(Cc3ccccc3)n2)cc1

>  <MEASURED>
3.8

$$$$
>  <STRUCTURE STRING>
C[C@@H]1CCCN1CCCOc1ccc(-c2ccc(=O)n(C)n2)cc1

>  <MEASURED>
3.5

$$$$
>  <STRUCTURE STRING>
C[C@@H]1CCCN1CCCOc1ccc(-c2ccc(=O)n(-c3ccccc3)n2)cc1

>  <MEASURED>
6.2

$$$$

###

METHOD NOTES: Dissociation constant, pKa of the compound
Assay type: physicochemical

>  <STRUCTURE STRING>
C[C@@H]1CCCN1CCCOc1ccc(-c2ccc(=O)[nH]n2)cc1

>  <pKa>
10.2

$$$$
>  <STRUCTURE STRING>
O=c1ccc(-c2ccc(OCCCN3CCOCC3)cc2)n[nH]1

>  <pKa>
7.1

$$$$

###

METHOD NOTES: Terminal half life in fasted Sprague-Dawley rat at 3 mg/kg, po after 6 to 24 hrs by LC-MS/MS analysis
Type: ADME, organism-based
Parameters: dose 3 mg/kg, route oral
CONDITION SUMMARY: in vivo, read-out: beta t1/2 (converted)
MEASURED METRIC: half-life (h)

>  <COMPOUND>
C[C@@H]1CCCN1CCCOc1ccc(-c2ccc(=O)[nH]n2)cc1.Cl [IRDABISANT HYDROCHLORIDE]

>  <MEASURED METRIC>
half-life

>  <VALUE UNITS>
h

>  <MEASURED>
2.9

$$$$

###

TESTED TARGET: UniProtKB Q01959
Sequence (Q01959 whole entry): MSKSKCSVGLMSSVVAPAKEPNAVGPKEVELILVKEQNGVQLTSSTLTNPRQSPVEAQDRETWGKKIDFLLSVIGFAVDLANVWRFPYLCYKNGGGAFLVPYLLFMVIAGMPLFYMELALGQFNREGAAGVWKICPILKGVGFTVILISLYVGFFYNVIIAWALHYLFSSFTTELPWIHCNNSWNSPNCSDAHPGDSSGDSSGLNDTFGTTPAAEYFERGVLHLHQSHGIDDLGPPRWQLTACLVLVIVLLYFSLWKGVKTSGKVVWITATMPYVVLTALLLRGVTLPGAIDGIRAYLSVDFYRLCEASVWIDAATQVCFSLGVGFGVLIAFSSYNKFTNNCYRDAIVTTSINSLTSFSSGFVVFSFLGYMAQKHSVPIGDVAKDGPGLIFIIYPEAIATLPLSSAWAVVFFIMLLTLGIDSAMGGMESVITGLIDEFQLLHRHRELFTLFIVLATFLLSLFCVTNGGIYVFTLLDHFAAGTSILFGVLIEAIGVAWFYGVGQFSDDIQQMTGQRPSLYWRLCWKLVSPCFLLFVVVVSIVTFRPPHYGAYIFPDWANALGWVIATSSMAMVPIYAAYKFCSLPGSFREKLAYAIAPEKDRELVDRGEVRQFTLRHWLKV
METHOD NOTES: Inhibition of recombinant human dopamine transporter
pIC50: −log10 of the molar value.
MEASURED METRIC: pIC50

>  <COMPOUND>
C[C@@H]1CCCN1CCCOc1ccc(-c2ccc(=O)[nH]n2)cc1 [IRDABISANT]

>  <MEASURED>
5.03

$$$$

###

TESTED TARGET: UniProt:P05177
Sequence (P05177 whole entry): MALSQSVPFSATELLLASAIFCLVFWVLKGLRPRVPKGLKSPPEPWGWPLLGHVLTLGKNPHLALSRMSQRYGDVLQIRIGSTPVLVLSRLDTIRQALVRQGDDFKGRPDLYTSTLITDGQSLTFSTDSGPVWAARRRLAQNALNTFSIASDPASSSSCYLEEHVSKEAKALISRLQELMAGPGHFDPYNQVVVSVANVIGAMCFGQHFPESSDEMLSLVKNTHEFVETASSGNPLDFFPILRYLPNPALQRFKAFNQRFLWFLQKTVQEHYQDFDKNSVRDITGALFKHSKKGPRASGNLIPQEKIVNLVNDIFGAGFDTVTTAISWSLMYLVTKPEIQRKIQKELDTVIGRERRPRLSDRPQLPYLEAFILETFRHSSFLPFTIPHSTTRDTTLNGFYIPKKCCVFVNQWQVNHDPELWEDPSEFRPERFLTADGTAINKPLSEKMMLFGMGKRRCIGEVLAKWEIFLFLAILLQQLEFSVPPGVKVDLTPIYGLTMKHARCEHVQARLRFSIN
MEASURED METRIC: IC50

>  <COMPOUND>
C[C@@H]1CCCN1CCCOc1ccc(-c2ccc(=O)[nH]n2)cc1.Cl [IRDABISANT HYDROCHLORIDE]

>  <MEASURED>
> 30 µM

$$$$

###

Entries and their bioavailability
METHOD NOTES: Oral bioavailability in fasted Sprague-Dawley rat at 5 mg/kg after 6 hrs by LC-MS/MS analysis
Type: ADME, organism-based
CONDITION SUMMARY: in vivo
MEASURED METRIC: bioavailability (%)

>  <STRUCTURE STRING>
CC(C)n1nc(-c2ccc(OCCCN3CCC[C@H]3C)cc2)ccc1=O

>  <VALUE UNITS>
%

>  <INEQUALITY SIGN>
=

>  <MEASURED>
5

$$$$
>  <STRUCTURE STRING>
Cn1nc(-c2ccc(OCCCN3CCC[C@H]3CO)cc2)ccc1=O

>  <VALUE UNITS>
%

>  <INEQUALITY SIGN>
=

>  <MEASURED>
43

$$$$
>  <STRUCTURE STRING>
Cn1nc(-c2ccc(OCCCN3CCCCC3)cc2)ccc1=O

>  <VALUE UNITS>
%

>  <INEQUALITY SIGN>
=

>  <MEASURED>
22

$$$$
>  <STRUCTURE STRING>
C[C@H]1CCCN1CCCOc1ccc(-c2ccc(=O)[nH]n2)cc1

>  <VALUE UNITS>
%

>  <INEQUALITY SIGN>
=

>  <MEASURED>
25

$$$$
>  <STRUCTURE STRING>
C[C@@H]1CCCN1CCCOc1ccc(-c2ccc(=O)n(-c3ccccc3)n2)cc1

>  <VALUE UNITS>
%

>  <INEQUALITY SIGN>
=

>  <MEASURED>
10

$$$$
>  <STRUCTURE STRING>
C[C@@H]1CCCN1CCCOc1ccc(-c2ccc(=O)n(Cc3ccccc3)n2)cc1

>  <VALUE UNITS>
%

>  <INEQUALITY SIGN>
<

>  <MEASURED>
1

$$$$
>  <STRUCTURE STRING>
O=c1ccc(-c2ccc(OCCCN3CCCCC3)cc2)n[nH]1

>  <VALUE UNITS>
%

>  <INEQUALITY SIGN>
=

>  <MEASURED>
11

$$$$
>  <STRUCTURE STRING>
CCn1nc(-c2ccc(OCCCN3CCC[C@H]3C)cc2)ccc1=O

>  <VALUE UNITS>
%

>  <INEQUALITY SIGN>
=

>  <MEASURED>
18

$$$$

Source: ChEMBL document CHEMBL1811886
